studyTarget: T1, OmpF porin trimer (outer-membrane protein F) (Escherichia coli, UniProt P02931 23-362)
T1 sequence (looked up): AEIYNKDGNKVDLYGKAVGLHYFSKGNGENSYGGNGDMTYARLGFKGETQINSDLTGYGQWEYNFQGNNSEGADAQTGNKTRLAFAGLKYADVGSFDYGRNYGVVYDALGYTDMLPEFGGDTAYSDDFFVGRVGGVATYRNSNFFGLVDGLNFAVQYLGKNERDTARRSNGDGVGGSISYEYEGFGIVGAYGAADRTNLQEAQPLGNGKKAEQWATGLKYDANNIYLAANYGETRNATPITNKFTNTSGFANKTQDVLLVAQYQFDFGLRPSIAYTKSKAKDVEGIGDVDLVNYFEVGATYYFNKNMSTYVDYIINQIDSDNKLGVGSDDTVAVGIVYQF
assayProtocol: single-channel electrical recording in planar lipid bilayer; single OmpF trimer in a DPhPC bilayer; free peptide added to the extracellular (cis) side, negative potentials; constants of Table 1 extrapolated to 0 mV, Kd for a single OmpF subunit; 20 mM potassium phosphate pH 6.4, 0.1 M KCl, 20.5 °C
conditionDetails: both partners purified
quantity: pKd
One number for each entry, as −log10 of the molar value.

Tell me pKd reported for H-SGGDGRGHNTGAHSTSG-NH2 [OBS1_(2-18) peptide (NH2-OBS1_(2-18)-CONH2)]
2.30
